pIC50: −log10 of the molar value.
# literature pull: Potassium voltage-gated channel subfamily A member 5 (Homo sapiens) pIC50
# Sequence (P22460 whole entry): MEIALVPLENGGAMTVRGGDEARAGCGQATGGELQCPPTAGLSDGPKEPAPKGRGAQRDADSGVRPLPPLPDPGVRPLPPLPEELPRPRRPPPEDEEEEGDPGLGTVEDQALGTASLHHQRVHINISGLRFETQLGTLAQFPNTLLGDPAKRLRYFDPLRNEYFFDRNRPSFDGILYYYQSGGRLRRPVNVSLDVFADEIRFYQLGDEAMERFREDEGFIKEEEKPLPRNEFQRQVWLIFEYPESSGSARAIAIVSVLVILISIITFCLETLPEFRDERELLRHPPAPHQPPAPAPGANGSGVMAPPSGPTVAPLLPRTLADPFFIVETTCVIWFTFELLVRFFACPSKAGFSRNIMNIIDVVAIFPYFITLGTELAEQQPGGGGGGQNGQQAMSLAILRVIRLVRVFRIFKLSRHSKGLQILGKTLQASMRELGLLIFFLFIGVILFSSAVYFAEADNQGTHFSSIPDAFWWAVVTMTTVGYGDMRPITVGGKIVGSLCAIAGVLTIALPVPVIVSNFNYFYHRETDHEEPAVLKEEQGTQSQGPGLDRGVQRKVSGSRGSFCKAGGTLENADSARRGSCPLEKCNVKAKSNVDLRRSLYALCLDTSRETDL
MEASURE NAME: pIC50

[[record]]
molecule = "CC1=Nc2ccnn2C(c2ccc(Cl)c(Cl)c2)C1C(=O)N1CCCC1c1cccnc1 (stereo not given)"
measure_name = "pIC50"
sign = "<"
test_result = 6.00

[[record]]
molecule = "CC1=Nc2ccnn2[C@H](c2cccc(Cl)c2Cl)C1C(=O)N1CCN(c2ccc(F)cc2)CC1 (stereo not given in full)"
measure_name = "pIC50"
sign = "="
test_result = 6.80

[[record]]
molecule = "CC1=Nc2ccnn2C(c2ccc(Cl)c(Cl)c2)C1c1nc2cc(C)ccc2n1C (stereo not given)"
measure_name = "pIC50"
sign = "="
test_result = 6.70

[[record]]
molecule = "CC1=Nc2ccnn2C(c2ccc(Cl)cc2)C1C(=O)N1CCN(c2ccc(F)cc2)CC1 (stereo not given)"
measure_name = "pIC50"
sign = "="
test_result = 6.36

[[record]]
molecule = "CC1=Nc2ccnn2C(c2ccc(Cl)c(Cl)c2)C1C(=O)N1CCCCCC1 (stereo not given)"
measure_name = "pIC50"
sign = "="
test_result = 6.72


###

# literature pull: Potassium voltage-gated channel subfamily A member 5 (Homo sapiens) IC50
MEASURE NAME: IC50

[[record]]
molecule = "CC1=Nc2ccnn2C(c2ccc(Cl)c(Cl)c2)C1c1nc2cc(S(C)(=O)=O)ccc2n1C (stereo not given)"
test_result = "> 1 µM"

[[record]]
molecule = "CC1=Nc2ccnn2C(c2cccc(Cl)c2Cl)C1C(=O)N1CCN(c2ccc(F)cc2)CC1 (stereo not given)"
test_result = "0.16 µM"

[[record]]
molecule = "CC1=Nc2ccnn2C(c2ccc(Cl)c(Cl)c2)C1c1nc2cc(S(=O)(=O)Nc3ccccc3)ccc2n1C (stereo not given)"
test_result = "> 1 µM"

[[record]]
molecule = "CC1=Nc2ccnn2C(c2ccc(Cl)c(Cl)c2)C1c1nnc(-c2ccccc2)o1 (stereo not given)"
test_result = "> 1 µM"

[[record]]
molecule = "CC1=Nc2ccnn2C(c2ccc(Cl)c(Cl)c2)C1C(=O)N1CCC[C@H]1c1nnc[nH]1 (stereo not given in full)"
test_result = "> 1 µM"

